Listing: Approximate lethal dose of selected compounds
Parameters: species or system male ICR mice
conditions: mouse, in vivo, po, 10080 min

compound	Approximate lethal dose
Cc1ccccc1-c1nc2c3sccc3ccn2c1N [Compound 310]	> 2,000 mg/kg
CCNc1c(-c2ccccc2C)nc2c3ccccc3ccn12 [Compound 158]	> 2,000 mg/kg
Cc1ccccc1-c1nc2c3ccsc3cc(C)n2c1N [Compound 236]	> 2,000 mg/kg
C=CCN(CC)c1c(-c2ccccc2C)nc2c3ccccc3ccn12 [Compound 222]	> 2,000 mg/kg
CCNc1c(-c2ccccc2C)nc2c3ccccc3c(OC)cn12 [Compound 166]	> 2,000 mg/kg
Cc1ccccc1-c1nc2c3ccccc3ccn2c1NCCC(C)C [Compound 188]	> 2,000 mg/kg
Cc1ccccc1-c1nc2c3ccccc3cc(C)n2c1N [Compound 9]	> 2,000 mg/kg
CCN(CCOC)c1c(-c2ccccc2C)nc2c3ccccc3ccn12 [Compound 205]	> 2,000 mg/kg
Cc1ccccc1-c1nc2c3ccccc3ccn2c1N [Compound 3]	> 2,000 mg/kg
